For each entry below, report its %max value.
# tgt: Metabotropic glutamate receptor 4 (Homo sapiens, UniProt Q14833)
# Sequence (Q14833 whole entry): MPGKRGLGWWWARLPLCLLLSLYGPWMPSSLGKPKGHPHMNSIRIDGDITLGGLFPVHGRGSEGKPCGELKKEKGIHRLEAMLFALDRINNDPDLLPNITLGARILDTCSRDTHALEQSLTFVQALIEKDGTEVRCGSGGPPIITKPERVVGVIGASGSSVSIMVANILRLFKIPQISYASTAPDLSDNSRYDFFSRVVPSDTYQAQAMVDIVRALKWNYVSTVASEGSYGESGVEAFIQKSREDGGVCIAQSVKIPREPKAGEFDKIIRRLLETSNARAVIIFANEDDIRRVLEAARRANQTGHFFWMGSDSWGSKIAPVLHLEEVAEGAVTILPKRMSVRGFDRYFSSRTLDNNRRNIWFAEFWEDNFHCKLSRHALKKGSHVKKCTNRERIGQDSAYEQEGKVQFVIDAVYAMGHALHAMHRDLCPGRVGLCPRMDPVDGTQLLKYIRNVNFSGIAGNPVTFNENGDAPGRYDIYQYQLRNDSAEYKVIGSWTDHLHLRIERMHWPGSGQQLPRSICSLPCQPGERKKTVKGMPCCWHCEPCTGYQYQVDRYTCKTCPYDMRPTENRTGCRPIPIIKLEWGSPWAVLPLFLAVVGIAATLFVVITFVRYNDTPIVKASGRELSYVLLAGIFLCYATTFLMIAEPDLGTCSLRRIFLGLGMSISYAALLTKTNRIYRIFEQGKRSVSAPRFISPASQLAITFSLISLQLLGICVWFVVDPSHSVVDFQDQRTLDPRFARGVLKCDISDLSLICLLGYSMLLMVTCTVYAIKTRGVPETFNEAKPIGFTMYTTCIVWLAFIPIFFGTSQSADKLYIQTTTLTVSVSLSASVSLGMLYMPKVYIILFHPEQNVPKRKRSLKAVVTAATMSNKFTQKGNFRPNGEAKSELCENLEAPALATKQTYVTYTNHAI
# assay_protocol: Positive allosteric modulation of human mGlu4 receptor expressed in CHO cells coexpressing Gqi5 assessed as potentiation of glutamate-induced calcium mobilization at 30 uM relative to (-)-PHCCC
# Format: functional, cell-based
The answer is to be given in %; state only the numeric part.

Prompt: Write down %max measured for item Nc1cccnc1C(=O)Nc1ccc(N2CC3(CCCCC3)CC2=O)c(Cl)c1
Completion: 52

Prompt: Write down %max measured for item Nc1cccnc1C(=O)Nc1ccc(N2Cc3ccc(Cl)cc3C2=O)c(Cl)c1
Completion: 42.3

Prompt: Write down %max measured for item COc1ccc2c(c1)C(=O)N(c1ccc(NC(=O)c3ncccc3N)cc1Cl)C2
Completion: 71.7

Prompt: Write down %max measured for item CCc1cnc(Oc2ccc(NC(=O)c3nccnc3N)cc2Cl)nc1
Completion: 104

Prompt: Write down %max measured for item Cc1cccc2c1C(=O)N(c1ccc(NC(=O)c3ncccc3N)cc1Cl)C2=O
Completion: 122

Prompt: Write down %max measured for item CC(C)CC1CC(=O)N(c2ccc(NC(=O)c3ncccc3N)cc2Cl)C1 (configuration not stated)
Completion: 74.5

Prompt: Write down %max measured for item Nc1cccnc1C(=O)Nc1cccc(Cl)c1
Completion: 88.1

Prompt: Write down %max measured for item O=C(Nc1ccc(N2C(=O)c3ccccc3C2=O)c(Cl)c1)c1ncccc1O
Completion: 115

Prompt: Write down %max measured for item CC1(C2CC2)CC(=O)N(c2ccc(NC(=O)c3ncccc3N)cc2Cl)C1 (configuration not stated)
Completion: 66.2

Prompt: Write down %max measured for item Nc1cccnc1C(=O)Nc1ccc(N2CCCC2=O)c(Cl)c1
Completion: 39.6

Prompt: Write down %max measured for item CCc1cnc(Oc2ccc(NC(=O)c3ncccc3N)cc2Cl)nc1
Completion: 97.9

Prompt: Write down %max measured for item CCc1cnc(Oc2ccc(NC(=O)c3ccncc3N)cc2Cl)nc1
Completion: 44.2

Prompt: Write down %max measured for item Nc1cccnc1C(=O)Nc1ccc(N2CC3(CCCC3)CC2=O)c(Cl)c1
Completion: 13.8

Prompt: Write down %max measured for item Nc1cccnc1C(=O)Nc1ccc(N2Cc3ncccc3C2=O)c(Cl)c1
Completion: 68.9

Prompt: Write down %max measured for item Nc1cccnc1C(=O)Nc1ccc(N2CC(Cc3ccccc3)CC2=O)c(Cl)c1 (configuration not stated)
Completion: 45.3

Prompt: Write down %max measured for item Nc1cccnc1C(=O)Nc1ccc(N2C(=O)c3ccccc3C2=O)c(Cl)c1
Completion: 89.1

Prompt: Write down %max measured for item Nc1cccnc1C(=O)Nc1ccc(N2Cc3ccccc3CC2=O)c(Cl)c1
Completion: 63.2

Prompt: Write down %max measured for item CC1(C)CC(=O)N(c2ccc(NC(=O)c3ncccc3N)cc2Cl)C1
Completion: 12.7

Prompt: Write down %max measured for item Nc1cccnc1C(=O)Nc1ccc(N2Cc3ccccc3C2=O)c(Cl)c1
Completion: 43.9

Prompt: Write down %max measured for item Cc1ncc(Oc2ccc(NC(=O)c3ncccc3N)cc2Cl)cn1
Completion: 89.8

Prompt: Write down %max measured for item Nc1cccnc1C(=O)Nc1ccc(N2CC(c3c(F)cccc3Cl)CC2=O)c(Cl)c1 (configuration not stated)
Completion: 75.9

Prompt: Write down %max measured for item Nc1cccnc1C(=O)Nc1ccc(N2CCc3ccccc3C2=O)c(Cl)c1
Completion: 60.7
